- TARGET_OR_SYSTEM: PI3K δ (Homo sapiens, UniProt O00329)
- Construct: purchased Upstate / Millipore Corporation
- Sequence (O00329 whole entry): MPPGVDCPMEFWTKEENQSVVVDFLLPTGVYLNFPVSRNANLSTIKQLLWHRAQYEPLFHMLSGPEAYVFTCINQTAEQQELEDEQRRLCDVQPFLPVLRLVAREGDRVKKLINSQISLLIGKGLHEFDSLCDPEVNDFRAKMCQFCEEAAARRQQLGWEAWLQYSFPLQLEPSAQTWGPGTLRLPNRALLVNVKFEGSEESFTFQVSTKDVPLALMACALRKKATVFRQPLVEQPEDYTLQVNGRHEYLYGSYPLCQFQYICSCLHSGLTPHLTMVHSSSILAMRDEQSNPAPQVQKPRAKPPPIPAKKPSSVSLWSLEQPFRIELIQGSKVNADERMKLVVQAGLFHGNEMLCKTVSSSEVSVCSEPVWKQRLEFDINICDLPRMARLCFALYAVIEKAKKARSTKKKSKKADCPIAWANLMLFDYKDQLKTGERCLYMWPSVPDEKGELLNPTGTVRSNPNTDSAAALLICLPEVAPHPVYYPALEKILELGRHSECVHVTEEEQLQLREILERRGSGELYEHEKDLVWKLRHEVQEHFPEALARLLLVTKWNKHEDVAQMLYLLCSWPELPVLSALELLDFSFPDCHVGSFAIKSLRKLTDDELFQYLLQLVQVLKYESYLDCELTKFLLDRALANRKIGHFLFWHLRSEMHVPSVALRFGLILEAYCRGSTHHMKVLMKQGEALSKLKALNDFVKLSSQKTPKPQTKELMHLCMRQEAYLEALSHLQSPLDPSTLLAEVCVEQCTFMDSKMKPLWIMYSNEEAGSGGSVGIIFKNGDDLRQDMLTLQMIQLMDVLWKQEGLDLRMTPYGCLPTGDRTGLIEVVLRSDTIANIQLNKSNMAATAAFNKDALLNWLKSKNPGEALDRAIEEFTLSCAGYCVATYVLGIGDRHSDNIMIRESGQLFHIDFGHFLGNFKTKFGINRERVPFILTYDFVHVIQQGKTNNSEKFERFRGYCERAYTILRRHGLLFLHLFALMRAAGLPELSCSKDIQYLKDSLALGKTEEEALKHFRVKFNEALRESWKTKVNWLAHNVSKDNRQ
- Sequence (P27986 whole entry partner): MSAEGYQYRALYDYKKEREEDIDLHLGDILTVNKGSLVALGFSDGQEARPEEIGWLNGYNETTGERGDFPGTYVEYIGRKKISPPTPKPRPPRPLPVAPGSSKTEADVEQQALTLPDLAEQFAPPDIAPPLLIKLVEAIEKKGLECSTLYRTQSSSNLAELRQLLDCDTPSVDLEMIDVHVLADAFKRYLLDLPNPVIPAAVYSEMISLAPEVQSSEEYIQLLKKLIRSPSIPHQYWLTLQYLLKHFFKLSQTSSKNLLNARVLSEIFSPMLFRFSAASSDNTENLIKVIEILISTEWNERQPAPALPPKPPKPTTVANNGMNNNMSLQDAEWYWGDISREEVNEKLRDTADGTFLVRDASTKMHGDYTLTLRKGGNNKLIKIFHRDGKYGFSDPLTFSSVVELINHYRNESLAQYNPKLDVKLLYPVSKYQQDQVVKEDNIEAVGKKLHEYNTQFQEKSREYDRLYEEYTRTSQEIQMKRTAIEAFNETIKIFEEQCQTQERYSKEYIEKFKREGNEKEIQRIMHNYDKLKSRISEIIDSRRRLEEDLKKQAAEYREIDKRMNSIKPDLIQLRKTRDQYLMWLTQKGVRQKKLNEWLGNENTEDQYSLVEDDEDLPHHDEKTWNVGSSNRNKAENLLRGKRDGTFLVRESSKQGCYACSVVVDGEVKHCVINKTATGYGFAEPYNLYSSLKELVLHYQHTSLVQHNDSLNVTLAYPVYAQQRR
- PROTOCOL_NOTES: PI 3-Kinase (human) HTRF assay, PI3K δ
- Type: biochemical
- PROTOCOL_CONDITIONS: read-out: PI3K δ IC50
Record form. Attribute: IC50. Fill in for each entry.

Query block: Tell me the measured IC50 of `CCN1CCN(c2cnc3ccc(-c4ccc5oc(N)nc5c4)cc3n2)CC1` , please.
Result block: < 10 µM

Query block: Quick one: IC50 for CC(Oc1nc(-c2ccc3ncc(C(=O)N4CCOCC4)n3c2)cnc1N)C(F)(F)F (stereo not shown) ?
Result block: < 10 µM

Query block: Name the reported IC50 value associated with the compound `Cn1cc(-c2cnc3ccc(-c4ccc5oc(N)nc5c4)cn23)cn1`
Result block: < 1 µM

Query block: # get_value(readout='IC50', item= `Nc1nc2cc(-c3ccc4ncc(C(=O)N5CCN(CCO)CC5)n4c3)ccc2o1` )
Result block: > 10 µM

Query block: Can you look up the measured IC50 of `Nc1nc2ccc(-c3ccc4nccc(-c5ccncc5)c4c3)cc2o1` for me?
Result block: < 0.1 µM

Query block: What does the record list as IC50 for `CN1CCC(N(C)C(=O)c2cnc3ccc(-c4ccc5oc(N)nc5c4)cn23)CC1` ?
Result block: < 10 µM

Query block: # get_value(readout='IC50', item= `COc1ccc(-c2ccc3ncc(C(=O)N4CCOCC4)n3c2)cc1NS(C)(=O)=O` )
Result block: > 10 µM

Query block: Which measured IC50 value corresponds to `Nc1nc2ccc(-c3ccc4nc(N)sc4c3)cc2o1` ?
Result block: > 10 µM

Query block: Which value of IC50 has been reported for `CN(C)CC(=O)N1CCC(Nc2ncnc3ccc(-c4ccc5oc(N)nc5c4)cc23)CC1` in the records?
Result block: < 1 µM

Query block: IC50 for `Nc1nc2cc(-c3ccc4ncc(C(=O)N5CCOCC5)n4n3)ccc2o1` ?
Result block: > 10 µM

Query block: Any idea what IC50 was measured for `Nc1nc2cc(-c3ccc4ncc(N5CC(n6cccn6)C5)nc4c3)ccc2o1` ?
Result block: > 10 µM

Query block: Which IC50 is reported for this compound? `CS(=O)(=O)N1CCN(c2cnc3ccc(-c4ccc5oc(N)nc5c4)cc3n2)CC1`
Result block: < 1 µM

Query block: Need IC50 of `COc1ncc(-c2ccc3ncc(C(=O)N4CCOCC4)n3c2)cc1N` , thanks.
Result block: > 10 µM

Query block: Can you share its IC50? I mean this compound: `CN1CCN(CCCn2cnc3ccc(-c4ccc5oc(N)nc5c4)cc3c2=O)CC1`
Result block: > 10 µM

Query block: Value lookup for IC50; key = `NC(=O)[C@@H]1CCCN1C(=O)c1cnc2ccc(-c3ccc4oc(N)nc4c3)cn12`
Result block: > 10 µM

Query block: I have this compound here, `Nc1nc2cc(-c3ccc4ncc(C(=O)N5CCOCC5)n4c3)cc(F)c2o1` , and I need its recorded IC50.
Result block: < 10 µM

Query block: Recorded IC50 of `CN1CCN(c2ccnc3ccc(-c4ccc5oc(N)nc5c4)cc23)CC1` , please.
Result block: < 10 µM

Query block: I am curious: what IC50 value has been reported for `Nc1nc2cc(-c3ccc4ncc(C(=O)N5CCC(F)CC5)n4c3)ccc2o1` ?
Result block: > 10 µM

Query block: Consider the compound `Nc1nc2cc(-c3ccc4ncc(N5CC(N6CCC(O)CC6)C5)nc4c3)ccc2o1` and give its measured IC50.
Result block: < 10 µM

Query block: # lookup: IC50 of `Nc1nc2cc(-c3ccc4ncc(C(=O)N5CC(O)C5)n4c3)ccc2o1`
Result block: < 10 µM

Query block: Query (compound): `Nc1nc2cc(-c3ccc4ncc(-c5cn[nH]c5)nc4c3)ccc2o1` ; field requested: IC50
Result block: < 1 µM

Query block: For `Nc1nc2cc(-c3ccc4ncnc(NC5CCOCC5)c4c3)ccc2o1` , what is its reported IC50?
Result block: < 0.1 µM

Query block: Using the record for `Nc1nc2cc(-c3ccc4ncc(C(=O)NCCOCCO)n4c3)ccc2o1` , report its IC50.
Result block: < 10 µM

Query block: Need IC50 of Nc1nc2cc(-c3ccc4ncc(N5CCC(O)C5)nc4c3)ccc2o1 (stereo not shown) , thanks.
Result block: < 10 µM

Query block: // returns reported IC50 for input `Nc1nc2ccc(-c3ccc4ncc(C(=O)N5CCOCC5)n4c3)cc2[nH]1`
Result block: > 10 µM

Query block: Quick one: IC50 for `Cc1ccn(C2CCN(c3cnc4ccc(-c5ccc6oc(N)nc6c5)cc4n3)CC2)n1` ?
Result block: > 10 µM

Query block: # query: IC50 of entry `N#Cc1cnc2ccc(-c3ccc4oc(N)nc4c3)cc2c1`
Result block: > 10 µM

Query block: Name the reported IC50 value associated with the compound `Cc1nc2ccc(-c3ccc4oc(N)nc4c3)cn2c1C(=O)N1CCN(C)CC1`
Result block: > 10 µM

Reference source for all entries: patent US20150087627A1
